# Assay: glucagon-like peptide 1 release enhancers, primary assay, NCI-H716 cell line, NPC library (AID 1117341)
# Conditions used: NCI-H716 cells, at 10 µM
Active and inactive are the calls of the source.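 The calls were made as follows: active = compound raises GLP1 secretion from the human gut endocrine cells, with no numeric limit stated; inactive = the rest.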
A correct response names exactly one class from 1 (active), 0 (inactive)

Input: Outcome logged for `OC(Cn1cncn1)(Cn1cncn1)c1ccc(F)cc1F` in this assay:
Output: 0

Input: Per the records of this test, what outcome belongs to CCCCC(O)/C=C(C)/C=C/C=C/C(=O)N1CCCC1=O (stereo not drawn) ?
Output: 0

Input: Give the logged outcome of this assay for the following compound: `CCCC(CCC)C(N)=O`
Output: 0

Input: # fetch the recorded call for `CCOC(=O)C(=O)CCCCCCl` here
Output: 0

Input: // return assay outcome for `Cn1c(O)c(N=NC(N)=S)c2ccccc21`
Output: 0

* * *

# Assay: modulators of glucocorticoid suppression of NF-kB, cell-based, luciferase, IL-1B stimulus, dexamethasone (AID 624486);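 also: 100% = mean signal of vehicle control wells on the plate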
# Conditions used: NF-kB luciferase reporter, IL-1B + dexamethasone, luminescence; actives lie on both sides, concentration not given here
Endpoint name: percent of negative control (+Dex) (%)
Return type: number; implicit unit %.

Here are 8 compounds together with their reported answers.
{"columns": ["Molecule smiles", "Endpoint name", "Units label", "Measured number"],
 "data": [
  ["CCn1c(-c2nonc2N)nc2ccncc21", "percent of negative control (+Dex)", "%", 93.5],
  ["Cc1ccc(C(=O)NC2CCCCC2)cc1-c1ccc(C(=O)NCC2CC2)cc1", "percent of negative control (+Dex)", "%", 88.5],
  ["Cn1cc(C2=C(c3c4n(c5ccccc35)CCN(C(N)=S)C4)C(=O)NC2=O)c2ccccc21", "percent of negative control (+Dex)", "%", 110],
  ["CC(C)c1ccc(Nc2nccc(-c3cnn4ncccc34)n2)cc1", "percent of negative control (+Dex)", "%", 12.5],
  ["Cc1nc(-c2ccccc2)n2nc(NCCCN3CCOCC3)ncc12", "percent of negative control (+Dex)", "%", 102],
  ["COc1cc[nH]c1C=C1C(=O)Nc2ccc(F)c(C#CC3(O)CCOCC3)c21", "percent of negative control (+Dex)", "%", 122],
  ["CN(C)C(=O)O[C@H]1CN[C@H](C#Cc2cc3ncnc(Nc4ccc(OCc5cccc(F)c5)c(Cl)c4)c3s2)C1", "percent of negative control (+Dex)", "%", 92],
  ["CCN(CC)Cc1ccc(Nc2nccc(-c3cnn4ncccc34)n2)cc1", "percent of negative control (+Dex)", "%", 3]
]}

Entry `COc1cc2ncn(-c3cc(OCc4ccccc4S(C)(=O)=O)c(C#N)s3)c2cc1OC` — recorded percent of negative control (+Dex) = 72.5

Kindly note the recorded percent of negative control (+Dex) for `CCn1c(-c2nonc2N)nc2c(C#CC(C)(C)O)nc(OCCNC)cc21` , which is 83.5

* * *

# Assay: inhibition of endothelial tube formation, primary screen, imaging, VEGF stimulated, CD31 staining, tube area, NPC library (AID 1117340)
# Conditions used: VEGF-stimulated ADSC/ECFC co-culture, at 10 µM
Activity calls are given as the source filed them.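 The calls were made as follows: active = compound that reduces growth-factor-driven endothelial tube area in a mixed cell culture, no cutoff stated; inactive = the rest.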
The categories you may choose from are active, inactive

{"columns": ["Compound", "Qualitative label"],
 "data": [
  ["C[C@H]1C[C@H](O)c2ccsc2S1(=O)=O", "inactive"],
  ["COc1cc(C(=S)N2CCOCC2)ccc1O", "inactive"],
  ["N[C@@H](Cc1cc(I)c(Oc2cc(I)c(O)c(I)c2)c(I)c1)C(=O)O", "inactive"]
]}

Input: Lab log entry: `NCc1ccc(S(N)(=O)=O)cc1` — outcome as called in the assay?
Output: inactive

Input: Hey, what did the test say about `O=C(Nc1ccc(Cl)c(Cl)c1)C1CC1` ?
Output: inactive

Input: Returns: the outcome recorded for `Cc1cn([C@H]2C[C@H](F)[C@@H](CO)O2)c(=O)[nH]c1=O` in this assay.
Output: inactive

Input: Could you kindly confirm the outcome this assay logged for CC(C)C[C@H](NC(=O)CNC(=O)[C@H](Cc1ccc(O)cc1)NC(=O)[C@H](CO)NC(=O)[C@H](Cc1c[nH]c2ccccc12)NC(=O)[C@H](Cc1cnc[nH]1)NC(=O)[C@@H]1CCC(=O)N1)C(=O)N[C@@H](CCCN=C(N)N)C(=O)N1CCC[C@H]1C(=O)NCC(N)=O (stereo in doubt) ?
Output: inactive

Input: Please state the recorded outcome for this compound: `CN(C)CCCOC1(Cc2ccccc2)CCCCCC1`
Output: inactive

Input: How did this test come out for CCCCCCCCCCCCCCCCCC(=O)OCC(O)CO (centres undefined) ?
Output: inactive

Input: Which result was noted for this compound in the test: `Cc1ccc(C)c(OCCCC(C)(C)C(=O)O)c1`
Output: inactive

Input: Per the assay record, what outcome was assigned to `Cc1ccc(C(C)C)c(O)c1` ?
Output: inactive

Input: Test call for this compound, please: `O=C(CO)[C@@H](O)[C@H](O)[C@@H](O)C(=O)O`
Output: inactive

Input: Name the outcome recorded for `Cc1cc(OCCOCC[N+](C)(C)Cc2ccccc2)ccc1C(C)(C)CC(C)(C)C` in the assay.
Output: active

* * *

# Assay: CellTiter-Glo luminescent readout of SW480 viability loss, NPC library primary (AID 1117343)
# Conditions used: CellTiter-Glo luminescence; at 20 µM (top of the series)
Endpoint name: viability decrease (inhibition) (%)
Express the result in % but write the number alone.

{"columns": ["Molecule", "viability decrease (inhibition) / %"],
 "data": [
  ["Nc1ncnc2c1ncn2CCOCP(=O)(O)O", 27.9]
]}

The measured viability decrease (inhibition) associated with `CCCCCCCCCCC[C@@H](C[C@@H]1OC(=O)[C@H]1CCCCCC)OC(=O)[C@H](CC(C)C)NC=O` reads 107

Sample `Cc1ccc(O)c([C@H](CCN(C(C)C)C(C)C)c2ccccc2)c1` ; viability decrease (inhibition) observed: 69.7

So, `C[C@H]1NCc2cc(-c3ccc4c(=O)c(C(=O)O)cn(C5CC5)c4c3OC(F)F)ccc21` ? Its viability decrease (inhibition) was -3.4

Kindly note the recorded viability decrease (inhibition) for CCN1C(=O)c2ccccc2C1Nc1ccc(OCCN2CCCCC2)cc1 (stereo not given) , which is 13.4

Just so you know, measured viability decrease (inhibition) for `CCCCCCCCCCCCCCCCCCNC(=O)OC1CCN(C(=O)OC[C@H](COC(=O)N(Cc2cccc[n+]2CC)C(=O)c2ccccc2OC)OC)CC1` came out at 131

`CC1(C)OC[C@@H]2O[C@@]3(C(=O)O)OC(C)(C)O[C@H]3[C@@H]2O1` has a reported viability decrease (inhibition) of 26.9

According to the records, this molecule `C=C1C(=C/C=C2\CCC[C@]3(C)[C@@H]([C@H](C)/C=C/[C@@H](O)C4CC4)CC[C@@H]23)C[C@@H](O)C[C@@H]1O` displays viability decrease (inhibition) of 111

* * *

# Assay: suppressors of polyQ aggregation in yeast, 75Q-TubU reporter (AID 1593)
# Conditions used: Yeast 75Q polyglutamine aggregation reporter
Threshold-based label: score under 1 gives Met, score not under 1 gives Not met.

# example entries with known answers
{"columns": ["Compound", "Qualitative label"],
 "data": [
  ["NC(N)=NC(=O)c1nc(Cl)c(N)nc1N", "Met"],
  ["C[C@H](CS)C(=O)N1CCC[C@H]1C(=O)O", "Not met"],
  ["Cc1ccccc1C(OCCN(C)C)c1ccccc1 (centres undefined)", "Not met"],
  ["CCCCc1oc2ccccc2c1C(=O)c1cc(I)c(OCCN(CC)CC)c(I)c1", "Met"],
  ["CC[C@H](C)C(=O)O[C@H]1C[C@@H](C)C=C2C=C[C@H](C)[C@H](CC[C@@H]3C[C@@H](O)CC(=O)O3)[C@H]21", "Met"]
]}

Input: Report whether reported score is lower than 1 (strictly) for `NNC(=O)c1ccncc1`
Output: Not met

Input: Please check: score for `OCCN1CCN(CCCN2c3ccccc3Sc3ccc(C(F)(F)F)cc32)CC1` , strictly under 1 or not?
Output: Not met

Input: Is it true that score reported for `NS(=O)(=O)c1cc2c(cc1Cl)NCNS2(=O)=O` is less than 1?
Output: Not met

Input: Does the reported score of CC(CN1c2ccccc2Sc2ccccc21)N(C)C (centres undefined) stay below 1?
Output: Not met

* * *

# Assay: kinase inhibitors against Plasmodium liver-stage infection, cell-based, known kinase inhibitor set, luminescence, hepatoma host viability (AID 624392);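 also: infected cells incubated roughly two days before readout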
# Conditions used: Plasmodium liver stage in hepatoma cells, luciferase luminescence, concentration not given here; stronger effect = lower value
Endpoint name: parasite % of control (%)
Please state the figure in %; there is no need to write the unit.

Use the examples below as a reference point.
{"columns": ["Compound", "parasite % of control, %"],
 "data": [
  ["Fc1cccc(COc2ccc(Nc3ncncc3C#Cc3ccccc3)cc2Cl)c1", 98],
  ["COC(=O)c1cncc(/C=C/c2c(C)cc(O)cc2C)c1", 131],
  ["O=C1Nc2ccc(C(=O)c3ccco3)cc2/C1=C/c1cc(Cl)c(O)c(Cl)c1", 74.2],
  ["Fc1ccc(-c2nn3ccccc3c2-c2ccncc2)cc1", 91.2],
  ["CCc1cccc(NC(=O)Nc2ccc(Oc3ccc4nc(NC(=O)OC)[nH]c4c3)cc2)c1", 128]
]}

Consider `Cn1cc(C2=C(c3cn(CCCCC(=N)N)c4ccccc34)C(=O)NC2=O)c2ccccc21` . Its measured parasite % of control is 22.6

Value of measured parasite % of control for the entry `N#Cc1cccc(C(=O)c2cnn(-c3ccc(F)cc3)c2N)c1` : 61.7

parasite % of control reading for `CCc1ccc(Oc2nccc(-c3c(-c4ccc(F)cc4)ncn3C3CCNCC3)n2)cc1` : 140

Recorded result, `Nc1c(C(=O)c2ccc(C#CCN3CCOCC3)cc2)cnn1-c1ccc(F)cc1` , parasite % of control: 75.7

// sample COc1ccc2cc(-c3c(-c4ccncc4)nc(-c4ccc(S(C)=O)cc4)n3C)ccc2c1 (stereo unspecified) , its parasite % of control was 121

The value of parasite % of control measured for the compound `CNc1ncc2cc(Oc3ccc(F)cc3F)c(=O)n(C)c2n1` turned out to be 65.3

Memo: `COc1cc2ncn(-c3cc(OCc4ccccc4C(F)(F)F)c(C(C)=O)s3)c2cc1OC` , reported parasite % of control: 91.8

So, `CC(=Nc1ccc(S(N)(=O)=O)cc1)c1c(O)[nH]c2ccccc12` ? Its parasite % of control was 234

Per the record, `COc1cc(N2CCN(C(C)C)CC2)ccc1Nc1nc(Nc2ccc(F)cc2C(=O)NC[C@@H](O)CO)c2cc[nH]c2n1` has parasite % of control of 330

Record summary for `COc1cc2ncn(-c3cc(O[C@@H](C)c4ccccc4Cl)c(C(N)=O)s3)c2cc1OC` : reported parasite % of control = 110

Short answer for `CC(=C1SC(=NCc2cccs2)NC1=O)c1ccc2ncccc2c1` : parasite % of control was 33.7

get_value(item= `CS(=O)(=O)CCNCc1ccc(-c2ccc3ncnc(Nc4ccc(OCc5cccc(C(F)(F)F)c5)cc4)c3c2)o1` , readout=parasite % of control) returns 126

Sure, the documented parasite % of control for `Cc1cc(O)cc(C)c1/C=C/c1cncc(C(=O)N(C)C)c1` is 96.9

Given item `NC(=O)CCc1ccccc1Oc1nccc(-c2c(-c3ccc(F)cc3)ncn2C2CCNCC2)n1` , the value recorded as its parasite % of control is 151

Entry under test: `Cc1nnc(-c2cccc(-c3ccc(C(=O)NCC4CC4)cc3)c2)o1` . Its parasite % of control was 99.2

Consider `N#Cc1c(NC(=O)c2ccccc2F)sc2c1CCCC2` . Its measured parasite % of control is 60.7
